- target.system: Acetylcholinesterase (Tetronarce californica, UniProt P04058)
- Sequence (P04058 whole entry): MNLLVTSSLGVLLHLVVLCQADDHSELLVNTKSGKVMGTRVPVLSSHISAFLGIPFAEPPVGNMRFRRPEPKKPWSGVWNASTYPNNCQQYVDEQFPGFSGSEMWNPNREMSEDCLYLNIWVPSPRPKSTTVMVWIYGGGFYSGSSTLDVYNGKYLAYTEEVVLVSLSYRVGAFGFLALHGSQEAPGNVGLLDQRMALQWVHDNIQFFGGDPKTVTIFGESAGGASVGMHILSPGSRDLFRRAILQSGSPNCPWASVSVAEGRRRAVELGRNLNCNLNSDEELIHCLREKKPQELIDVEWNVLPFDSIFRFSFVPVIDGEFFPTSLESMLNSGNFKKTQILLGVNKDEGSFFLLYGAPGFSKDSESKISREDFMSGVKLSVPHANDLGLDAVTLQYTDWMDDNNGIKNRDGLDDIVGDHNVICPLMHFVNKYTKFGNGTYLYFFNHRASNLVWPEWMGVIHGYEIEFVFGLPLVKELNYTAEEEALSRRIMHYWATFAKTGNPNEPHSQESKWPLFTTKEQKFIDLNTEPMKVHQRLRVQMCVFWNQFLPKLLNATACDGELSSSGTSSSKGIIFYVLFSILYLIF
property.measured: pIC50
Reminder that pIC50 is minus the log10 of a molar concentration.

Which value of pIC50 has been reported for `COc1cc(C(=O)NCCCCCCCCC(=O)NNc2c3c(nc4ccccc24)CCCC3)cc(OC)c1OC` in the records?
8.22
